# Tested on: Wolbachia pipientis
# ASSAY_PROCEDURE: Anti-Wolbachia Cell-Based Screen
# Format: functional
# Design: scale not given: in the data most compounds retested in dose-response had high values
# EXPERIMENTAL_SETUP: 5 µM
About 13,000 (27%) of roughly 48,000 compounds showed an effect of 50% or more. Some of the results follow.
EXPERIMENTAL_ENDPOINT: Percent Effect (%)
Just the number in %, nothing appended.

Reference set (5 entries):
* CN(C)c1ncncc1NC(=O)Cc1c[nH]c2ccc(F)cc12 | -1.659
* Cc1nn2c(N3CCC(C#N)CC3)cc(-c3ccccc3)nc2c1C | -8.665
* O=c1[nH]nc(CCCN2CCOCC2)n1Cc1cccc(F)c1 | 102.2
* Cc1nonc1N1CCN(Cc2nc(CC3CC3)no2)CC1 | -9.131
* Cc1ccc(C(=O)NCc2cccnc2N(C)C)s1 | 92.24

stdin: Query Percent Effect for Cc1ccccc1CC1(CO)CCCN(c2ncccc2C#N)C1 (configuration not stated)
stdout: 0.9317

stdin: Fill in reported Percent Effect for this entry: CCCS(=O)(=O)N1CCC2(CC1)CC(=O)N(Cc1cc(F)cc(F)c1)C2
stdout: 128.2

stdin: Look up and report measured Percent Effect for this entry: CN1CC2(CCN(C(=O)Cc3ccc(O)c(F)c3)CC2)CC1=O
stdout: -5.557

stdin: Give the reported value of Percent Effect for this record: CC(C)N(C)Cc1ccccc1CNc1ccc2nncn2n1
stdout: -2.79

stdin: Output Percent Effect of O=C(O)C1CCN(C[C@H]2CC[C@@H](Cc3ccc4c(c3)OCO4)O2)CC1
stdout: 4.381

stdin: Supply Percent Effect value. Item: Cn1ccnc1SCCNC(=O)c1c[nH]nc1C1CCCCC1
stdout: -10.23

stdin: # return recorded Percent Effect for input Cl.Cn1ccnc1CNC(=O)c1ccnc(C2CCNCC2)c1
stdout: 112.8

stdin: Return value of Percent Effect for input O=C(Nc1ccccn1)C1=NN(c2ccccc2)C(=O)CN1 , no commentary.
stdout: -0.4273

stdin: Provide only the value of recorded Percent Effect for Cc1cnc(C(C)(C)NC(=O)NCc2cccnc2OC(C)C)s1
stdout: -10.8

stdin: In one line, give reported Percent Effect of the entry Cc1ccc(CN(C)C(=O)NCC(C)(C)CCS(C)(=O)=O)s1 .
stdout: -3.781
